Give measured IC50 for each item. Keep answers brief.
- tested-on: dopamine transporter (DAT) (Homo sapiens, UniProt Q01959)
- Sequence (Q01959 whole entry, species assumed): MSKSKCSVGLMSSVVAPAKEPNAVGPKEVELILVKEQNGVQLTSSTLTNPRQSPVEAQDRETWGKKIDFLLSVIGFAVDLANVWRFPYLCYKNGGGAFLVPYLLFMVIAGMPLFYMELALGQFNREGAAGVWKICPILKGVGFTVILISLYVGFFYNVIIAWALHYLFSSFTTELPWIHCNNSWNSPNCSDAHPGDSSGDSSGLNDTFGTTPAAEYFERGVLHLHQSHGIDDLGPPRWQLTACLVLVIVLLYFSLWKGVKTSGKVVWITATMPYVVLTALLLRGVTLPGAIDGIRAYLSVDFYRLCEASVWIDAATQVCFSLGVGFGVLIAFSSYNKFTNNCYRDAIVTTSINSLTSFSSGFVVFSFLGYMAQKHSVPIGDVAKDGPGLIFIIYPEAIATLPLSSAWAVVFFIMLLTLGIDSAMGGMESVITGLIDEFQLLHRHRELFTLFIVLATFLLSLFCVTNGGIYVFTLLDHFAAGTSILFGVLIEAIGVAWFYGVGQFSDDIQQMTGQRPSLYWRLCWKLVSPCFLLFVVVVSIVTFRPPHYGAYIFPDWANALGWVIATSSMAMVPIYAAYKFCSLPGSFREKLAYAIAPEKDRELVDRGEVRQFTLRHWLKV
- method: Dopamine reuptake inhibition, [3H]-DA, HEK-293 cells transfected with dopamine transporter cDNA
Numbers only, in nM.

# annotated cases, reported IC50 shown
Bench note: what IC50 did COc1ccc2c(-c3nnc(CN4CCC(Cc5ccccc5)CC4)[nH]3)c[nH]c2c1 show?
1200

Bench note: what IC50 did COc1cc2cc(-c3nnc(CN4CCC(Cc5ccc(Cl)c(Cl)c5)CC4)[nH]3)[nH]c2cc1OC show?
204

Bench note: what IC50 did FC(F)(F)Oc1ccc(-c2nnc(CN3CCC(Cc4ccccc4)CC3)[nH]2)cc1 show?
223

Dear colleague, could you please provide IC50 for the compounds listed below?
1. FC(F)(F)c1ccc(-c2nnc(CN3CCC(Cc4ccccc4)CC3)[nH]2)cc1
2. Clc1ccc2[nH]c(-c3nnc(CN4CCC(Cc5ccccc5)CC4)[nH]3)cc2c1
3. COc1ccc2cc(-c3nnc(CN4CCC(Cc5ccccc5)CC4)[nH]3)[nH]c2c1
4. c1ccc(CC2CCN(Cc3nnc(-c4cc5ccccc5[nH]4)[nH]3)CC2)cc1
5. COc1cc2cc(-c3nnc(CN4CCC(Cc5ccccc5)CC4)[nH]3)[nH]c2cc1OC

1: 236; 2: 16; 3: 76; 4: 170; 5: 174

----------
- tested-on: dopamine transporter (DAT) (Homo sapiens, UniProt Q01959)
- method: Dopamine reuptake inhibition, [3H]-DA, HEK-293 cells transfected with dopamine transporter cDNA
- run-conditions: compound 1 μM; relative to control without compound (100%); lower value = stronger inhibition
measured-metric: Triple reuptake inhibition (Ratio %) DAT
One number for each entry, in %.

# annotated cases, reported Triple reuptake inhibition (Ratio %) DAT shown
Bench note: what Triple reuptake inhibition (Ratio %) DAT did COc1cc2cc(-c3nnc(CN4CCC(Cc5ccc(Cl)c(Cl)c5)CC4)[nH]3)[nH]c2cc1OC show?
19.20

Bench note: what Triple reuptake inhibition (Ratio %) DAT did c1ccc(CN2CCN(Cc3nnc(-c4cc5ccccc5[nH]4)[nH]3)CC2)cc1 show?
22.39

Bench note: what Triple reuptake inhibition (Ratio %) DAT did CC(=O)Nc1ccc2[nH]c(-c3nnc(CN4CCC(Cc5ccccc5)CC4)[nH]3)cc2c1 show?
51.59

Dear colleague, could you please provide Triple reuptake inhibition (Ratio %) DAT for the compounds listed below?
1. N#Cc1ccc2[nH]c(-c3nnc(CN4CCC(Cc5ccccc5)CC4)[nH]3)cc2c1
2. Fc1ccc2[nH]c(-c3nnc(CN4CCC(Cc5ccc(Cl)c(Cl)c5)CC4)[nH]3)cc2c1
3. Oc1ccc2cc(-c3nnc(CN4CCC(Cc5ccccc5)CC4)[nH]3)ccc2c1
4. COc1ccc2[nH]cc(-c3nnc(CN4CCC(Cc5ccc(Cl)c(Cl)c5)CC4)[nH]3)c2c1
5. Cc1ccc2[nH]c(-c3nnc(CN4CCC(Cc5ccccc5)CC4)[nH]3)cc2c1
6. FC(F)(F)Oc1ccc(-c2nnc(CN3CCC(Cc4ccccc4)CC3)[nH]2)cc1

1. 9.25
2. 36.13
3. 48.72
4. 80.58
5. 21.04
6. 11.41

Dear colleague, could you please provide Triple reuptake inhibition (Ratio %) DAT for the compounds listed below?
1. c1ccc(CC2CCN(Cc3nnc(-c4c[nH]c5ccccc45)[nH]3)CC2)cc1
2. FC(F)(F)Oc1ccc(-c2nnc(CN3CCC(Cc4ccc(Cl)c(Cl)c4)CC3)[nH]2)cc1
3. COc1ccc(CC2CCN(Cc3nnc(-c4cc5ccccc5[nH]4)[nH]3)CC2)cc1
4. COc1ccc2c(-c3nnc(CN4CCC(Cc5ccc(Cl)c(Cl)c5)CC4)[nH]3)c[nH]c2c1
5. Oc1cc2cc(-c3nnc(CN4CCC(Cc5ccccc5)CC4)[nH]3)[nH]c2cc1O
6. COc1ccc(-c2nnc(CN3CCC(Cc4ccccc4)CC3)[nH]2)cc1OC
7. Clc1ccc2[nH]c(-c3nnc(CN4CCN(Cc5ccccc5)CC4)[nH]3)cc2c1
8. Fc1ccc2[nH]c(-c3nnc(CN4CCC(Cc5ccccc5)CC4)[nH]3)cc2c1

19.30
59.39
88.63
75.06
35.65
20.20
28.61
3.94

----------
Give measured Triple reuptake inhibition (Ratio %) DAT for each item. Keep answers brief.
- tested-on: dopamine transporter (DAT) (Homo sapiens)
- method: Dopamine reuptake inhibition, [3H]-DA, HEK-293 cells transfected with dopamine transporter cDNA
- run-conditions: compound 1 μM; relative to control without compound (100%); lower value = stronger inhibition
Give bare numbers, in %.

# annotated cases, reported Triple reuptake inhibition (Ratio %) DAT shown
Bench note: what Triple reuptake inhibition (Ratio %) DAT did COC(=O)c1ccc(-c2nnc(CN3CCC(Cc4ccccc4)CC3)[nH]2)cc1N show?
26.54

Bench note: what Triple reuptake inhibition (Ratio %) DAT did Cc1ccc2c(-c3nnc(CN4CCC(Cc5ccccc5)CC4)[nH]3)c[nH]c2c1 show?
31.70

Bench note: what Triple reuptake inhibition (Ratio %) DAT did COc1ccc2[nH]cc(-c3nnc(CN4CCC(Cc5ccccc5)CC4)[nH]3)c2c1 show?
69.78

With those in mind, consider the next molecule.
Bench note: what Triple reuptake inhibition (Ratio %) DAT did Clc1ccc2[nH]cc(-c3nnc(CN4CCC(Cc5ccccc5)CC4)[nH]3)c2c1 show?
62.96

----------
- tested-on: norepinephrine transporter (NET) (Homo sapiens, UniProt P23975)
- Sequence (P23975 whole entry, species assumed): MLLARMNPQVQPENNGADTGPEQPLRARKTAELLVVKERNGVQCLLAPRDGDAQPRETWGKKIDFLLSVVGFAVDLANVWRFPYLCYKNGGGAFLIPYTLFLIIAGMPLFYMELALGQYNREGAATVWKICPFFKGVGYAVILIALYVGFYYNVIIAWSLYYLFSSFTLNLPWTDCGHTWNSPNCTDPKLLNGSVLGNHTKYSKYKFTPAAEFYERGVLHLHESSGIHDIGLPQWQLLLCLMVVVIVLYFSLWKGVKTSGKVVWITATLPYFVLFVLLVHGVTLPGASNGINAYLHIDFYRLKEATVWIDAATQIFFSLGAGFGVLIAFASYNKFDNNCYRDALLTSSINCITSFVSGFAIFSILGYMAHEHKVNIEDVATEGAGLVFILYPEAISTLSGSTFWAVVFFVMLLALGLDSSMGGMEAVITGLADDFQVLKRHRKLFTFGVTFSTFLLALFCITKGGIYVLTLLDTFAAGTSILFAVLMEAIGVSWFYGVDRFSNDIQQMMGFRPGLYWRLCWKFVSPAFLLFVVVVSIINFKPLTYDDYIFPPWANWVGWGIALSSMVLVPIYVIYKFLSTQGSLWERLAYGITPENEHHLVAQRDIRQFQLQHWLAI
- method: Norepinephrine reuptake inhibition, [3H]-NE, cells transfected with NE transporter cDNA
- run-conditions: compound 1 μM; relative to control without compound (100%); lower value = stronger inhibition
measured-metric: Triple reuptake inhibition (Ratio %) NET
Give bare numbers, in %.

# annotated cases, reported Triple reuptake inhibition (Ratio %) NET shown
Bench note: what Triple reuptake inhibition (Ratio %) NET did COC(=O)c1cccc2c(-c3nnc(CN4CCC(Cc5ccccc5)CC4)[nH]3)c[nH]c12 [Example 42] show?
96.81

Bench note: what Triple reuptake inhibition (Ratio %) NET did Clc1cccc2c(-c3nnc(CN4CCC(Cc5ccccc5)CC4)[nH]3)c[nH]c12 [Example 40] show?
92.42

Dear colleague, could you please provide Triple reuptake inhibition (Ratio %) NET for the compounds listed below?
1. CN(C)CCNC(=O)c1ccc(-c2nnc(CN3CCC(Cc4ccccc4)CC3)[nH]2)cc1 [Example 58]
2. Cc1ccc2[nH]c(-c3nnc(CN4CCC(Cc5ccc(Cl)c(Cl)c5)CC4)[nH]3)cc2c1 [Example 30]
3. Cc1ccc2[nH]cc(-c3nnc(CN4CCC(Cc5ccccc5)CC4)[nH]3)c2c1 [Example 39]
4. c1ccc(CC2CCN(Cc3nnc(-c4ccc5ccccc5c4)[nH]3)CC2)cc1 [Example 21]

76.51
96.77
99.14
27.49

Dear colleague, could you please provide Triple reuptake inhibition (Ratio %) NET for the compounds listed below?
1. c1ccc(CN2CCN(Cc3nnc(-c4cc5ccccc5[nH]4)[nH]3)CC2)cc1 [Example 4]
2. FC(F)(F)Oc1cccc(-c2nnc(CN3CCC(Cc4ccccc4)CC3)[nH]2)c1 [Example 54]
3. FC(F)(F)c1ccc(-c2nnc(CN3CCC(Cc4ccccc4)CC3)[nH]2)cc1 [Example 50]
4. COc1ccc(CC2CCN(Cc3nnc(-c4cc5ccccc5[nH]4)[nH]3)CC2)cc1 [Example 6]
5. c1ccc(CC2CCN(Cc3nnc(-c4cc5ccccc5s4)[nH]3)CC2)cc1 [Example 26]

1. 64.76
2. 52.40
3. 27.46
4. 88.83
5. 53.01

Dear colleague, could you please provide Triple reuptake inhibition (Ratio %) NET for the compounds listed below?
1. Fc1ccc2cc(-c3nnc(CN4CCC(Cc5ccccc5)CC4)[nH]3)[nH]c2c1 [Example 16]
2. c1ccc(CC2CCN(Cc3nnc(-c4ccc(Oc5ccccc5)cc4)[nH]3)CC2)cc1 [Example 53]
3. CC(=O)Nc1ccc(-c2nnc(CN3CCC(Cc4ccccc4)CC3)[nH]2)cc1 [Example 51]

[36.38, 28.99, 56.36]

Dear colleague, could you please provide Triple reuptake inhibition (Ratio %) NET for the compounds listed below?
1. Clc1ccc2[nH]c(-c3nnc(CN4CCC(Cc5ccccc5)CC4)[nH]3)cc2c1 [Example 14]
2. COc1cccc2c(-c3nnc(CN4CCC(Cc5ccccc5)CC4)[nH]3)c[nH]c12 [Example 37]
3. N#Cc1ccc(-c2nnc(CN3CCC(Cc4ccccc4)CC3)[nH]2)cc1 [Example 46]

[5.84, 79.91, 53.00]

----------
- tested-on: UniProt P23975
- method: Norepinephrine reuptake inhibition, [3H]-NE, cells transfected with NE transporter cDNA
Give measured IC50 for each item. Keep answers brief.
Answers are plain numbers, in nM.

Bench note: what IC50 did FC(F)(F)c1ccc(-c2nnc(CN3CCC(Cc4ccccc4)CC3)[nH]2)cc1 show?
176

Dear colleague, could you please provide IC50 for the molecules listed below?
1. N#Cc1ccc2[nH]c(-c3nnc(CN4CCC(Cc5ccccc5)CC4)[nH]3)cc2c1
2. Fc1ccc2[nH]c(-c3nnc(CN4CCC(Cc5ccccc5)CC4)[nH]3)cc2c1
3. COC(=O)c1ccc(-c2nnc(CN3CCC(Cc4ccccc4)CC3)[nH]2)cc1N
4. COc1ccc2c(-c3nnc(CN4CCC(Cc5ccccc5)CC4)[nH]3)c[nH]c2c1
5. COc1cc2cc(-c3nnc(CN4CCC(Cc5ccccc5)CC4)[nH]3)[nH]c2cc1OC
6. Fc1ccc2cc(-c3nnc(CN4CCC(Cc5ccccc5)CC4)[nH]3)[nH]c2c1
7. COc1ccc2cc(-c3nnc(CN4CCC(Cc5ccccc5)CC4)[nH]3)[nH]c2c1

1: 226; 2: 14; 3: 327; 4: 640; 5: 36; 6: 501; 7: 611

Dear colleague, could you please provide IC50 for the molecules listed below?
1. Cc1ccc2[nH]c(-c3nnc(CN4CCC(Cc5ccccc5)CC4)[nH]3)cc2c1
2. NC(=O)c1ccc2[nH]c(-c3nnc(CN4CCC(Cc5ccccc5)CC4)[nH]3)cc2c1
3. COc1cc2cc(-c3nnc(CN4CCC(Cc5ccc(Cl)c(Cl)c5)CC4)[nH]3)[nH]c2cc1OC
4. FC(F)(F)Oc1ccc(-c2nnc(CN3CCC(Cc4ccccc4)CC3)[nH]2)cc1
5. Clc1cccc2c(-c3nnc(CN4CCC(Cc5ccccc5)CC4)[nH]3)c[nH]c12
6. c1ccc(CC2CCN(Cc3nnc(-c4ccc5c(c4)OCO5)[nH]3)CC2)cc1
7. Clc1ccc2[nH]c(-c3nnc(CN4CCC(Cc5ccccc5)CC4)[nH]3)cc2c1

[1110, 463, 459, 475, 924, 1990, 173]
